# assay summary: Proteolysis during production detected using mass spectroscopy
# Type: physicochemical
# test settings: proteolytic stability
outcome measure: Proteolysis During Production?

ELA-I: Fc-linker fusion of elabela analogue KLRKHNSLQRRYMPLHSRVPFP (C7S, C12Y) (protein) MRAWIFFLLCLAGRALADKTHTSPPSPAPEAAGGPSVFLFPPKPKDTLMISRTPEVTCVVVDVSHEDPEVKFNWYVDGVEVHNAKTKPREEQYNSTYRVVSVLTVLHQDWLNGKEYKCKVSNKALPAPIEKTISKAKGQPREPQVYTLPPSREEMTKNQVNLTCLVKGFYPSDIAVEWESNGQPENNYKTTPPVLDSDGSFFLNSTLTVDKSRWQQGNVFSCSVMHEALHNHYTQKSLSLSPGKGGGGSGGGGSGGGGSKLRKHNSLQRRYMPLHSRVPFP	Yes
ELA-E: Fc-linker fusion of elabela analogue KLRKHNCLQRRCMPLHRRVPFP (S17R) (protein) MRAWIFFLLCLAGRALADKTHTSPPSPAPEAAGGPSVFLFPPKPKDTLMISRTPEVTCVVVDVSHEDPEVKFNWYVDGVEVHNAKTKPREEQYNSTYRVVSVLTVLHQDWLNGKEYKCKVSNKALPAPIEKTISKAKGQPREPQVYTLPPSREEMTKNQVNLTCLVKGFYPSDIAVEWESNGQPENNYKTTPPVLDSDGSFFLNSTLTVDKSRWQQGNVFSCSVMHEALHNHYTQKSLSLSPGKGGGGSGGGGSGGGGSKLRKHNCLQRRCMPLHRRVPFP	No
ELA-D: Fc-linker fusion of elabela analogue KLRKHNCLQRRCMPLHQRVPFP (S17Q) (protein) MRAWIFFLLCLAGRALADKTHTSPPSPAPEAAGGPSVFLFPPKPKDTLMISRTPEVTCVVVDVSHEDPEVKFNWYVDGVEVHNAKTKPREEQYNSTYRVVSVLTVLHQDWLNGKEYKCKVSNKALPAPIEKTISKAKGQPREPQVYTLPPSREEMTKNQVNLTCLVKGFYPSDIAVEWESNGQPENNYKTTPPVLDSDGSFFLNSTLTVDKSRWQQGNVFSCSVMHEALHNHYTQKSLSLSPGKGGGGSGGGGSGGGGSKLRKHNCLQRRCMPLHQRVPFP	No
ELA-J: Fc-linker fusion of elabela analogue KLRKHNCLQERCMPLHSRVPFP (R10E) (protein) MRAWIFFLLCLAGRALADKTHTSPPSPAPEAAGGPSVFLFPPKPKDTLMISRTPEVTCVVVDVSHEDPEVKFNWYVDGVEVHNAKTKPREEQYNSTYRVVSVLTVLHQDWLNGKEYKCKVSNKALPAPIEKTISKAKGQPREPQVYTLPPSREEMTKNQVNLTCLVKGFYPSDIAVEWESNGQPENNYKTTPPVLDSDGSFFLNSTLTVDKSRWQQGNVFSCSVMHEALHNHYTQKSLSLSPGKGGGGSGGGGSGGGGSKLRKHNCLQERCMPLHSRVPFP	Yes
